# Test system: U2OS
# METHOD NOTES: Multiplex assay against U2OS
# Assay type: toxicity, cell-based
# EXPERIMENTAL CONTEXT: human, 48 h, 1 µM, compound concentration 1 uM, replicate 2
The entries below come with measured Population Tubulin-Different-Phenotype (%) values attached.
Give just the number in %; leave the unit off.

// Population Tubulin-Different-Phenotype (%) value for CC(C)N1CCC(C)(C)c2cc(C#Cc3ccc(C(=O)O)cc3)ccc21 : 20

For this compound ( CCc1cc2c(cc1CC)CC(NC[C@H](O)c1ccc(O)c3[nH]c(=O)ccc13)C2 ), measured Population Tubulin-Different-Phenotype (%) is 11

Population Tubulin-Different-Phenotype (%) in this record for COc1ccc(NS(=O)(=O)c2sc3ccc(Cl)cc3c2C)cc1N1CCNCC1.Cl : 11

Measured Population Tubulin-Different-Phenotype (%), Cl.Cl.Nc1ncnc2c1c(-c1cccc(OCc3ccccc3)c1)cn2[C@H]1C[C@@H](CN2CCC2)C1 : 26

Noted for Nc1nc2c(c(N3CCNCC3)n1)CCC1=C2[C@@H]2CCCC[C@@H]2O1 : its Population Tubulin-Different-Phenotype (%) reads 13

Where these numbers come from: ChEMBL document CHEMBL4689842
